- test system: T1, extracellular domain of human IL-4Rα (residues 26–232), C-terminal 6× His (human, UniProt P24394)
- T1 construct: human interleukin-4 receptor alpha subunit, extracellular domain, residues 26-232; Subcloned into the pSecTag2A vector; N-glycosylated (~45 kDa, ~26 kDa after PNGase F); also called wild-type IL-4Rα; soluble IL-4Rα; source: HEK293F, transiently transfected, purified (Ni-NTA); not shown: His6, C-terminal, kept
- T1 sequence (P24394 26-232): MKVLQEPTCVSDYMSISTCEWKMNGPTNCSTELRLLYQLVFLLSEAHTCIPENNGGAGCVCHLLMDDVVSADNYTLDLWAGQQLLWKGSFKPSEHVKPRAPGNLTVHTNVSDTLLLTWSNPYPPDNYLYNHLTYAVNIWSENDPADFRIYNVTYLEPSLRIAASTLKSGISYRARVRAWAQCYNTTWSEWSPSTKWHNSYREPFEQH
- assay remarks: BLI; OctetRED96; Ab (1 μg/mL) captured on anti-human IgG Fc capture (AHC) biosensors at low density (0.6 to 0.8 nm), soluble monomeric IL-4Rα as analyte; 25 °C, PBS pH 7.4, 0.02% Tween 20; association 300 s, dissociation 600-900 s; 1:1 binding model
- condition notes: both partners purified
Measured Kd values are reported for all entries that follow.
Reply numerically in nM, unit not repeated.

Record excerpt, results attached:
binder: 4R34, human IgG1 (antibody, V domains shown) VH: EVQLLESGGGLVQPGGSLRLSCAASGFTFSNYAMSWVRQAPGKGLEWVSAISSGGGNIYYADSVKGRFTISRDNSKNTLYLQMNSLRAEDTAVYYCARVHRAFDYWGQGTLVTVSS VL: QSVLTQPPSASGTPGQRVTISCSGSSSNIGSNTFNWYQQLPGTAPKLLIYADSHRPSGVPDRFSGSKSGTSASLAISGLRSEDEADYYCGTWDYSLSGYVLGGGTKLTVL
unit name: nM
Kd: 1.04
//
binder: 4R34.29, human IgG1 (antibody, V domains shown) VH: EVQLLESGGGLVQPGGSLRLSCAASGFTFSNYAMSWVRQAPGKGLEWVSAITAGGGSIYYADSVKGRFTISRDNSKNTLYLQMNSLRAEDTAVYYCARVHRAFDYWGQGTLVTVSS VL: QSVLTQPPSASGTPGQRVTISCSGSSSNIGSNTFNWYQQLPGTAPKLLIYADSHRPSGVPDRFSGSKSGTSASLAISGLRSEDEADYYCGTWDYSLSGYVLGGGTKLTVL
unit name: nM
Kd: 0.716
//
binder: 4R34.1.13, human IgG1 (antibody, V domains shown) VH: EVQLLESGGGLVQPGGSLRLSCAASGFTFSNYAMSWVRQAPGKGLEWVSAITSSGRSIYYADSVKGRFTISRDNSKNTLYLQMNSLRAEDTAVYYCARVHRAFDYWGQGTLVTVSS VL: QSVLTQPPSASGTPGQRVTISCSGSAQFGSRDNFNWYQQLPGTAPKLLIYADSHRPSGVPDRFSGSKSGTSASLAISGLRSEDEADYYCGTWDYSLRGYVLGGGTKLTVL
unit name: nM
Kd: 0.208
//
binder: 4R34.1.18, human IgG1 (antibody, V domains shown) VH: EVQLLESGGGLVQPGGSLRLSCAASGFTFSNYAMSWVRQAPGKGLEWVSAITSSGRSIYYADSVKGRFTISRDNSKNTLYLQMNSLRAEDTAVYYCARVHRAFDYWGQGTLVTVSS VL: QSVLTQPPSASGTPGQRVTISCSGSLLRGENLQFNWYQQLPGTAPKLLIYADSHRPSGVPDRFSGSKSGTSASLAISGLRSEDEADYYCGTWDYSLRGYVLGGGTKLTVL
unit name: nM
Kd: 0.29

Consider the additional binder presented here.
-- ask Quick check: Kd of 4R34.1, human IgG1 (antibody, V domains shown) VH: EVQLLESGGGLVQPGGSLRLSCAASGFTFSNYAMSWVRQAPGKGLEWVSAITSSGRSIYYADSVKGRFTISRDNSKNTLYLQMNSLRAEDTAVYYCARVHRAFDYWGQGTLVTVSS VL: QSVLTQPPSASGTPGQRVTISCSGSSSNIGSNTFNWYQQLPGTAPKLLIYADSHRPSGVPDRFSGSKSGTSASLAISGLRSEDEADYYCGTWDYSLSGYVLGGGTKLTVL ?
-- reply 0.401
